Cited source for all entries: patent US10111854B2

Tested on: L. amazonensis LV78 promastigotes
testDetails: Reactive oxygen species (ROS) level, DCFDA, promastigotes
Type: cell-based
runConditions: 30 μM, 6 hr
Description: 50,000 RAW264.7 were seeded in each well of black 96-well plates overnight. Next day, RAW264.7 cells were pre-loaded with 10 μM dichlorofluorescein diacetate (DCFDA) (Abcam) for 1 hr at 37° C. with 5% CO2. A control of non-DCFDA stained cells was also included. The DCFDA-contained supplemented DMEM media was removed. […] The ROS level was determined at different periods of time including 2, 4, 6, 8, 20, 46 and 72 hr using microplate reader (excitation: 485 nm and emission: […]). […]
propertyLabel: L. amazon LV78 promastigote ROS Level, Relative fold (RF) (fold)
Reply numerically in fold, unit not repeated.

Please look up its L. amazon LV78 promastigote ROS Level, Relative fold (RF): N=C(N)c1ccc(OCCCCCOc2ccc(C(=N)N)cc2)cc1
1.5

Give the measured L. amazon LV78 promastigote ROS Level, Relative fold (RF) of C[C@@H]1[C@H](O)[C@@H](C)/C=C/C=C/C=C/C=C/C=C/C=C/C=C/[C@H](O[C@@H]2O[C@H](C)[C@@H](O)[C@H](N)[C@@H]2O)C[C@@H]2O[C@](O)(C[C@@H](O)C[C@@H](O)[C@H](O)CC[C@@H](O)C[C@@H](O)CC(=O)O[C@H]1C)C[C@H](O)[C@H]2C(=O)O .
7.5

For O=c1cc(-c2ccc(OCCOCCN(Cc3ccccn3)Cc3ccccn3)cc2)oc2ccccc12 , what is its reported L. amazon LV78 promastigote ROS Level, Relative fold (RF)?
2.3

So what's the measured L. amazon LV78 promastigote ROS Level, Relative fold (RF) for this one? CC(C)(C)OO [tert-butyl hydroperoxide]
1.4

# input compound: O=c1cc(-c2ccc(OCCOCCN(CCOCCOc3ccc(-c4cc(=O)c5ccccc5o4)cc3)Cc3ccncc3)cc2)oc2ccccc12 ; wanted: its L. amazon LV78 promastigote ROS Level, Relative fold (RF)
1.3
